Test system: A549 NSCLC
assay.explanation: NCI tumour cell line growth inhibition, 48 h
quantity: TGI

Here is how some compounds turned out for TGI.
# smiles.string, TGI
data = [
    ("Cc1cc2ccccc2n2c1nc1ccc(O)cc12", "> 10 µM"),
    ("COC(OC)c1cccnc1C", "> 100 µM"),
    ("BrCc1ccc2ccc3ccc(CBr)nc3c2n1", "34.7 µM"),
]

Continue with the next compound.
Please supply the value of reported TGI for the item CCCCn1c(-c2ccccc2)cs/c1=N\NC(=O)Cn1c(C)nc2ccccc21
> 100 µM

----------
Tested on: K-562 leukemia
assay.explanation: NCI tumour cell line growth inhibition, 48 h
# TGI per record follows

Here is how some molecules turned out for TGI.
# molecule, TGI
rows = [
    ("COc1ccc(OCC(=O)O)c2c1CCC(C)C2=O (stereo not given)", "> 100 µM"),
    ("COc1cc(C2CC(c3ccc(Cl)cc3)=NN2C(C)=O)ccc1Oc1ccnc2cc(Cl)ccc12 (stereo not given)", "> 100 µM"),
    ("Cc1c2cc[n+](C)cc2c(C)c2c1[nH]c1ccc(OCC(F)(F)F)cc12", "> 56.6 µM"),
]

Please supply the value of reported TGI for the item C/C(N=NS(=O)(=O)c1c(C)cc(C)cc1C)=C1\C=CC=CN1O
> 100 µM

Please supply the value of reported TGI for the item CC12CC(c3ccccc3O1)C(C(=O)Nc1nccs1)C(=O)N2 (stereo not given)
> 100 µM

Please supply the value of reported TGI for the item COC(=O)c1c(CC(=O)OC(C)C)cc2n(c1=O)Cc1c-2nc2ccccc2c1OC
> 100 µM

Please supply the value of reported TGI for the item O=C(CCC(NC(=O)OCc1ccccc1)C(=O)OCc1ccccc1)Nc1cccc(OCc2ccccc2)c1 (stereo not given)
52.2 µM

Please supply the value of reported TGI for the item C/C(=N\NC(=S)N1CCCC1)c1ccccn1
> 55.9 µM

Please supply the value of reported TGI for the item O=C(O)CCN1C(=S)CSC1=S
> 100 µM

Please supply the value of reported TGI for the item C[C@H](CCc1nc(C#N)c(N)o1)[C@H]1CC[C@H]2[C@@H]3CCC4C[C@@H](O)CC[C@]4(C)[C@H]3C[C@@H](O)[C@]12C (stereo not given in full)
39.6 µM

----------
# TGI per record follows
Test system: SF-295 CNS
assay.explanation: NCI tumour cell line growth inhibition, 48 h

Here is how some molecules turned out for TGI.
# molecule, tested.system, quantity, data.value
rows = [
    ("C/C(=N/NC(N)=S)C(CN1CCOCC1)C(C1=C(O)c2ccccc2OC1)c1ccccc1 (stereo unspecified)", "SF-295 CNS", "TGI", "> 100 µM"),
    ("CC(=O)OC1C2CCC3CC2C2(SCCS2)C31 (stereo unspecified)", "SF-295 CNS", "TGI", "> 100 µM"),
    ("CCSc1c2ccccc2nc2c(OC)ccc(OC)c12", "SF-295 CNS", "TGI", "66.2 µM"),
    ("COC(=O)[C@@H]1C=CCN1S(=O)(=O)c1ccc(C)cc1", "SF-295 CNS", "TGI", "> 100 µM"),
    ("COC1CCC(OC)C(c2nc3sccn3c2/C=N/N=C(N)N)C1 (stereo unspecified)", "SF-295 CNS", "TGI", "34.1 µM"),
]

GET TGI | system: SF-295 CNS | item: COc1ccc(/C=C/C(=O)c2cc(CN(C)C)c(O)c(CN(C)C)c2)cc1
91.1 µM

GET TGI | system: SF-295 CNS | item: CC(C)(C1=NC(C(C)(C)C)CO1)C1=N[C@@H](C(C)(C)C)CO1 (stereo partly specified)
> 100 µM

GET TGI | system: SF-295 CNS | item: COc1c(NC(C)=O)c2ccccc2c2ccccc12
> 100 µM

GET TGI | system: SF-295 CNS | item: Cc1ccc(N=Nc2c(O)ccc3ccccc23)c(C)c1
> 100 µM

GET TGI | system: SF-295 CNS | item: Cc1nc(Nc2ccc(Cl)cc2)sc1C(=O)Nc1cccc2c(=O)[nH][nH]c(=O)c12
74.3 µM

GET TGI | system: SF-295 CNS | item: COc1c(OC2OC(C)C(O)C(O)C2O)c(OC)c2oc(-c3ccc(O)cc3)cc(=O)c2c1O (stereo unspecified)
> 100 µM

----------
System: SN12C renal
assay.explanation: NCI tumour cell line growth inhibition, 48 h; in the data active = GI50 below about 0.43 µM; inactive = the rest
A correct response names exactly one class from 1 = active, -1 = inactive

# smiles.string, tested.system, discrete.label
records = [
    ("CCCC(=O)Nc1cc(/C=C/C(=O)N2C[C@@H]3C[C@]34C2=CC(=O)c2[nH]cc(C)c24)n(C)c1", "SN12C renal", 1),
    ("C=C(CN1CCN(c2ccccn2)CC1)c1ccc(C(=O)Nc2ccccc2N)cc1", "SN12C renal", -1),
    ("COc1ccc(/C=C(\\C#N)c2cc(OC)c(OC)c(OC)c2)cc1", "SN12C renal", 1),
]

How was CC(C)(O)c1cc(Nc2cc(Oc3cn(C4CC4)nc3C3CCOCC3)ccn2)ccn1 classified in this test?
-1

How was CN(C)CCN=c1nc2c(c(N)n1-c1ccccc1)c(=S)n(-c1ccccc1)c(=S)n2-c1ccccc1 classified in this test?
-1

----------
System: HCC-2998 colon
assay.explanation: NCI tumour cell line growth inhibition, 48 h
quantity: TGI

# molecule, tested.system, TGI
records = [
    ("CC(=O)/C(=N\\N=C(N)N)c1ccccc1", "HCC-2998 colon", "> 100 µM"),
    ("O=C(O)c1c(CC(Cc2ccccc2)C(=O)O)ccc2c1CCC2 (stereo unspecified)", "HCC-2998 colon", "> 100 µM"),
    ("OC[C@H]1N[C@H](CO)[C@@H](O)[C@H]1O", "HCC-2998 colon", "> 100 µM"),
]

Please supply the value of reported TGI for the item COC(=O)c1c(CC(=O)OC(C)C)cc2n(c1=O)Cc1c-2nc2ccccc2c1OC
> 100 µM

Please supply the value of reported TGI for the item Cc1c(C(=O)O)sc2nc[nH]c(=O)c12
> 100 µM

Please supply the value of reported TGI for the item CCN(CC)c1ccc(/C=N/N=C(N)N)cc1
17.3 µM

----------
Test system: NCI-H522 lung
assay.explanation: NCI tumour cell line growth inhibition, 48 h; in the data active = GI50 below about 0.43 µM; inactive = the rest
A correct response names exactly one class from 1 for active, -1 for inactive

Previously resolved entries follow.
# smiles.string, discrete.label
measured = [
    ("COc1cc(N)c(Cl)cc1C(=O)N[C@@H]1CCN(CCCOc2ccc(F)cc2)C[C@@H]1OC", -1),
    ("COc1ccc(-c2cn3ccnc3c(-c3ccc(Cl)cc3)n2)cc1", -1),
    ("O=C1c2ccccc2-c2c1c1ccccc1c(=O)n2CCNCCNCCNCCNCCn1c2c(c3ccccc3c1=O)C(=O)c1ccccc1-2", 1),
    ("CCN(CC)CC[n+]1ccc2c(C)c3[nH]c4ccccc4c3c(C)c2c1", 1),
    ("Cc1nc(C(=O)OCc2ccccc2)cc(OCc2ccccc2)c1C", -1),
    ("C=C(CN1CCN(c2ccccn2)CC1)c1ccc(C(=O)Nc2ccccc2N)cc1", -1),
    ("COc1ccc(/C=C(\\C#N)c2cc(OC)c(OC)c(OC)c2)cc1", 1),
]

Here is the next item to consider.
How was CCOC(=O)c1sc(NC(=O)COc2ccc(/C=C3\CCc4cc(OC)ccc4C3=O)cc2)nc1C classified in this test?
-1

----------
# TGI per record follows
Tested on: UO-31 renal
assay.explanation: NCI tumour cell line growth inhibition, 48 h

# compound, data.value
rows = [
    ("O=C(O)C12C=CC(C1)c1ccccc12 (stereo unspecified)", "> 100 µM"),
    ("O=C(O)c1c(CC(Cc2ccccc2)C(=O)O)ccc2c1CCC2 (stereo unspecified)", "> 100 µM"),
    ("COC(=O)CCCc1nc2ccccc2nc1N=Nc1ccccc1", "> 100 µM"),
    ("C[C@]12CC[C@H](OC(=O)Nc3ccccc3)CC1=CC[C@@H]1C2CC[C@]2(C)/C(=N/OC(=O)Nc3ccccc3)CCC12 (stereo partly specified)", "7.91 µM"),
    ("NCCOCCOCC(=O)O", "> 100 µM"),
    ("C[C@H](CCc1nc(C#N)c(N)o1)[C@H]1CC[C@H]2[C@@H]3CCC4C[C@@H](O)CC[C@]4(C)[C@H]3C[C@@H](O)[C@]12C (stereo partly specified)", "16.6 µM"),
]

Please supply the value of reported TGI for the item COC(=O)C1=C(O)c2cc(OC)c(OC)c(OC)c2C(c2ccc3c(c2)OCO3)[C@@H]1C(=O)OC (stereo partly specified)
> 100 µM

Please supply the value of reported TGI for the item O=C(Nc1ccccc1)N1C(c2ccccc2)=N[C@@H](c2ccccc2)[C@@H]1c1ccccc1
30.6 µM

Please supply the value of reported TGI for the item COc1ccc2c(CN3CCCC[C@H]3O)cc3cc4c(cc3c2c1)OCO4
5.67 µM

Please supply the value of reported TGI for the item COc1ccc(N=c2nc3sc4cc(Cl)ccc4n3c(N)c2C#N)cc1
> 100 µM

Please supply the value of reported TGI for the item CN1COCN=C1NC#N
> 100 µM

Please supply the value of reported TGI for the item COc1ccc(C(=O)c2ccccc2)c(O)c1
> 100 µM

Please supply the value of reported TGI for the item C[C@@H]1CC2(C[C@@H](C)C3[C@@H](CC4(C)CCCC5C6=CC(O)(CC[C@]34C)OC6=CC(=O)OC5(C)C)O2)OC1=O (stereo partly specified)
> 100 µM

Please supply the value of reported TGI for the item Cc1ccc(N=Nc2c(O)ccc3ccccc23)c(C)c1
> 100 µM

Please supply the value of reported TGI for the item CNCC(SC)c1ccc(O)c(O)c1 (stereo unspecified)
> 100 µM

Please supply the value of reported TGI for the item Cc1oc(N)c(S(=O)(=O)/C(C#N)=C/c2ccccc2[N+](=O)[O-])c1C
30.6 µM

Please supply the value of reported TGI for the item CCOC(=O)NN1C(=O)C(=P(c2ccccc2)(c2ccccc2)c2ccccc2)C(C(=O)OC)=C1C
> 100 µM
